Some binders, each annotated with its measured GLP1R Internalization EC50.
target or system: human GLP1-R (SNAP-GLP-1R expressed in HEK293 cells) (human) (UniProt P43220)
Sequence (P43220 24-463): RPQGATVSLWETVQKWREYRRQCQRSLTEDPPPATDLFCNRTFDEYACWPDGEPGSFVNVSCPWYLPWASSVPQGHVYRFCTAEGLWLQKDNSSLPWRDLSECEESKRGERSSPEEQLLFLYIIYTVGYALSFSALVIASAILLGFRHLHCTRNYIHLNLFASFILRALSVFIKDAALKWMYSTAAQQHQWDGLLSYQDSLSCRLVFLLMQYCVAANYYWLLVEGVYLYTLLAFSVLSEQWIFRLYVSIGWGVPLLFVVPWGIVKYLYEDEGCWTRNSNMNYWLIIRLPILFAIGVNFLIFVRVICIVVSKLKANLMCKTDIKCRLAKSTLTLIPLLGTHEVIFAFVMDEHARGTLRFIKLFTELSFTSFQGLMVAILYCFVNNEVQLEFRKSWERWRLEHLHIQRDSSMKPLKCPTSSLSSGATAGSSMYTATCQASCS
assay explanation: cell-based or functional assay
Starred links: 1 amine or outer side, 2 acyl side, 3 side chain; linkers in the order of their positions; H or OH if unused. Non-standard residues stand in square brackets, D forms with d. Groups on a side chain read outwards from the residue. No end group written: not given here. *: point of attachment. C20 diacid = O=C(O)CCCCCCCCCCCCCCCCCCC(=O)*; C18 diacid = O=C(O)CCCCCCCCCCCCCCCCC(=O)*; γGlu = O=C(O)[C@H](CCC(=O)[*:2])N[*:1]; αMeL = CC(C)C[C@](C)(N)C(=O)O; Dab = NCC[C@H](N)C(=O)O; AEEA = NCCOCCOCC(=O)O; Aib = CC(C)(N)C(=O)O
measurement label: GLP1R Internalization EC50 (nM)

binder: Y[Aib]QGTFTSDFSK[αMeL]LDKK([AEEA-γGlu-C20 diacid])AQQAFIEYLLA[Aib]GPSSGEPPPSEG-NH2 [Example 19]
measurement label: GLP1R Internalization EC50
test value: 52.4

binder: YXQGTFTSDFSKXLDKKAQXAFIEYLLAGGPSSGEPPPGEG (synthetic construct; SITE 2: note = 2-Aminoisobutyric Acid; SITE 13: note = alpha-methyl-leucine; SITE 17: note = Lysine is chemically modified through conjugation of the epsilon-amino group of the Lysine side chain with (2-[2-(2-Amino-ethoxy)-ethoxy]-acetyl)-(gamma-Glu)-CO-(CH2) 18-CO2H; SITE 20: n) [Example 31]
measurement label: GLP1R Internalization EC50
test value: 91.9

binder: YXQGTFTSDFSKXLDKKAQXAFIEYLLEGGPSSGAPPPGGS (synthetic construct; SITE 2: note = 2-Aminoisobutyric Acid; SITE 13: note = alpha-methyl-leucine; SITE 17: note = Lysine is chemically modified through conjugation of the epsilon-amino group of the Lysine side chain with (2-[2-(2-Amino-ethoxy)-ethoxy]-acetyl)-(gamma-Glu)-CO-(CH2) 18-CO2H; SITE 20: n) [Example 18]
measurement label: GLP1R Internalization EC50
test value: 91.8

binder: YXQGTFTSDFSKXLDKKAQXAFIEYLLAGGPSSGAPPPSGG (synthetic construct; SITE 2: note = 2-Aminoisobutyric Acid; SITE 13: note = alpha-methyl-leucine; SITE 17: note = Lysine is chemically modified through conjugation of the epsilon-amino group of the Lysine side chain with (2-[2-(2-Amino-ethoxy)-ethoxy]-acetyl)-(gamma-Glu)-CO-(CH2) 18-CO2H; SITE 20: n) [Example 12]
measurement label: GLP1R Internalization EC50
test value: 48.5

binder: YXQGTFTSDFSXXLDKKAQXAFIEYLLAGGPSSGAPPPSGE (synthetic construct; SITE 2: note = 2-Aminoisobutyric Acid; SITE 12: note = L-ornithine; SITE 13: note = alpha-methyl-leucine; SITE 17: note = Lysine is chemically modified through conjugation of the epsilon-amino group of the Lysine side chain with (2-[2-(2-Amino-ethoxy)-ethoxy]-acetyl)-(gamma-Glu)) [Example 86]
measurement label: GLP1R Internalization EC50
test value: 57.8

binder: YXQGTFTSDFSKXLDKKAQXAFIEYLLAGGPSSGAPPPSEG (synthetic construct; SITE 2: note = 2-Aminoisobutyric Acid; SITE 13: note = alpha-methyl-leucine; SITE 17: note = Lysine is chemically modified through conjugation of the epsilon-amino group of the Lysine side chain with (2-[2-(2-Amino-ethoxy)-ethoxy]-acetyl)-(gamma-Glu)-CO-(CH2) 18-CO2H; SITE 20: n) [Example 10]
measurement label: GLP1R Internalization EC50
test value: 79.2

binder: YXQGTFTSDFSRXLDKKAQXAFIEYLLEXGPSSGAPPPGGS (synthetic construct; SITE 2: note = 2-Aminoisobutyric Acid; SITE 13: note = alpha-methyl-leucine; SITE 17: note = Lysine is chemically modified through conjugation of the epsilon-amino group of the Lysine side chain with (2-[2-(2-Amino-ethoxy)-ethoxy]-acetyl)-(gamma-Glu)-CO-(CH2) 18-CO2H; SITE 20: n) [Example 42]
measurement label: GLP1R Internalization EC50
test value: 61.4

binder: YXQGTFTSDFSKXLDKKAQXAFIEYLLAGAPSSGAPPPSEG (synthetic construct; SITE 2: note = 2-Aminoisobutyric Acid; SITE 13: note = alpha-methyl-leucine; SITE 17: note = Lysine is chemically modified through conjugation of the epsilon-amino group of the Lysine side chain with (2-[2-(2-Amino-ethoxy)-ethoxy]-acetyl)-(gamma-Glu)-CO-(CH2) 18-CO2H; SITE 20: n) [Example 24]
measurement label: GLP1R Internalization EC50
test value: 79.9

binder: YXQGTFTSDFSKXLDKKAQXAFIEYLLEXGPSSGAPPPSGS (synthetic construct; SITE 2: note = 2-Aminoisobutyric Acid; SITE 13: note = alpha-methyl-leucine; SITE 17: note = Lysine is chemically modified through conjugation of the epsilon-amino group of the Lysine side chain with (2-[2-(2-Amino-ethoxy)-ethoxy]-acetyl)-(gamma-Glu)-CO-(CH2) 18-CO2H; SITE 20: n) [Example 45]
measurement label: GLP1R Internalization EC50
test value: 52.6

binder: Y[Aib]QGTFTSDFS[Dab][αMeL]LDKK([AEEA-γGlu-C18 diacid])AQ[Aib]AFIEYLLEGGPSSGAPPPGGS-NH2 [Example 67]
measurement label: GLP1R Internalization EC50
test value: 50.9

binder: YXQGTFTSDFSXXLDKKAQXAFIEYLLEXGPSSGEPPPGEG (synthetic construct; SITE 2: note = 2-Aminoisobutyric Acid; SITE 12: note = L-ornithine; SITE 13: note = alpha-methyl-leucine; SITE 17: note = Lysine is chemically modified through conjugation of the epsilon-amino group of the Lysine side chain with (2-[2-(2-Amino-ethoxy)-ethoxy]-acetyl)2-(gamma-Glu)) [Example 69]
measurement label: GLP1R Internalization EC50
test value: 71.9

binder: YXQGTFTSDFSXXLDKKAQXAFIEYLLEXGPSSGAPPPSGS (synthetic construct; SITE 2: note = 2-Aminoisobutyric Acid; SITE 12: note = L-ornithine; SITE 13: note = alpha-methyl-leucine; SITE 17: note = Lysine is chemically modified through conjugation of the epsilon-amino group of the Lysine side chain with (2-[2-(2-Amino-ethoxy)-ethoxy]-acetyl)-(gamma-Glu)) [Example 74]
measurement label: GLP1R Internalization EC50
test value: 72.7
